# System name: UniProt P34969
# Sequence (P34969 whole entry): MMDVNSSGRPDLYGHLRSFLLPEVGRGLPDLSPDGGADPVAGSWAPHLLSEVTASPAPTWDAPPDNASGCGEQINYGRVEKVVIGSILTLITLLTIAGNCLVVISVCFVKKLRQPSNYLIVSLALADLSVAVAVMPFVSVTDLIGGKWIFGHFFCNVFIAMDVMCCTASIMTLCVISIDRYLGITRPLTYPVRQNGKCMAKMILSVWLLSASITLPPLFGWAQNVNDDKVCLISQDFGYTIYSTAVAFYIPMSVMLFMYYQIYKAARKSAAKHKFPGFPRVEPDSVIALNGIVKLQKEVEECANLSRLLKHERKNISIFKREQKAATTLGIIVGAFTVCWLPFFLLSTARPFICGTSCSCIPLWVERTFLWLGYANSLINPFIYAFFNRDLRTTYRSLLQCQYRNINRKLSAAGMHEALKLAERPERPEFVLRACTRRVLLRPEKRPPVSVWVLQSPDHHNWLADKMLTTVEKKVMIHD
# Experiment notes: Cellular functional assay, 5-HT7 serotoninergic receptors
# Format: cell-based
# Run conditions: agonist mode; percent of control specific agonist response
For each of the molecules below, state its 5-HT7 ag [%].
One number for each entry, in %.

> print(dat)
                                   molecule     system.name  measured.endpoint  test.value
1  O=S(=O)(N[C@H]1CCN(CCCc2noc3cc(F)ccc23)C1)c1cc2ccc(Cl)cc2s1  UniProt P34969       5-HT7 ag [%]           1
2  O=S(=O)(NC1CCN(CCCc2noc3cc(F)ccc23)C1)c1cc2ccccc2s1 (stereo not shown)  UniProt P34969       5-HT7 ag [%]          −2
3  O=S(=O)(NC1CCN(CCCc2noc3cc(F)ccc23)C1)c1csc2ccccc12 (stereo not shown)  UniProt P34969       5-HT7 ag [%]          −3

Continue with the next molecule.
# 5-HT7 ag [%] of Cc1ccc2sc(S(=O)(=O)NC3CCN(CCCc4noc5cc(F)ccc45)C3)cc2c1 (stereo not shown) = −2

###

# System name: 5-HT6 receptor (Homo sapiens, UniProt P50406)
# Sequence (P50406 whole entry): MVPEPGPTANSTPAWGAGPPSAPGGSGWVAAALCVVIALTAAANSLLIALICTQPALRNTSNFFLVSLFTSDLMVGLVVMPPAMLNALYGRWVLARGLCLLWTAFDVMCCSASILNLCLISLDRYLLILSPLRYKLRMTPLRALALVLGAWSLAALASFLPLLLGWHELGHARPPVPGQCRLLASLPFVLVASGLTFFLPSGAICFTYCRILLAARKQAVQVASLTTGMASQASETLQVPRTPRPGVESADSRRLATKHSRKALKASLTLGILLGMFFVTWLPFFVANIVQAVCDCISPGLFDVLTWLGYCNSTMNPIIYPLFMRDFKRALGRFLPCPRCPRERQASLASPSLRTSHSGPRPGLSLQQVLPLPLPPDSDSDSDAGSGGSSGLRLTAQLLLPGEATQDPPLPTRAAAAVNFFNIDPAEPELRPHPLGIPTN
For each of the compounds below, state its Ki.
Numbers only, in nM.

Study these solved cases before continuing.
> print(dat)
                                   compound  test.value
1  O=S(=O)(NC1CCN(CCCc2c[nH]c3ccc(F)cc23)C1)c1ccc(F)cc1 (centres unmarked)          34
2  Cc1ccc2sc(S(=O)(=O)N[C@@H]3CCN(CCCc4noc5cc(F)ccc45)C3)cc2c1          14
3  O=S(=O)(NC1CCN(CCCc2c[nH]c3ccc(F)cc23)C1)c1ccc2ccccc2c1 (centres unmarked)          15
4  O=S(=O)(N[C@@H]1CCN(CCCc2noc3cc(F)ccc23)C1)c1cc2ccc(Cl)cc2s1         8.6
5  O=S(=O)(N[C@@H]1CCN(CCCc2noc3cc(F)ccc23)C1)c1ccc2ccccc2c1         6.1
6  O=S(=O)(N[C@H]1CCN(CCCc2noc3cc(F)ccc23)C1)c1cc2ccccc2s1          16
7  Cc1c(S(=O)(=O)N[C@@H]2CCN(CCCc3noc4cc(F)ccc34)C2)sc2ccc(Cl)cc12         6.9

Continue with the next compound.
Lab note: compound O=S(=O)(NC1CCN(CCOc2cccc3ccccc23)C1)c1ccc2ccccc2c1 (centres unmarked) tested on 5-HT6 receptor (Homo sapiens, UniProt P50406); recorded Ki was 71

###

# System name: dopaminergic receptors D2 (Homo sapiens)
# Sequence (P14416 whole entry): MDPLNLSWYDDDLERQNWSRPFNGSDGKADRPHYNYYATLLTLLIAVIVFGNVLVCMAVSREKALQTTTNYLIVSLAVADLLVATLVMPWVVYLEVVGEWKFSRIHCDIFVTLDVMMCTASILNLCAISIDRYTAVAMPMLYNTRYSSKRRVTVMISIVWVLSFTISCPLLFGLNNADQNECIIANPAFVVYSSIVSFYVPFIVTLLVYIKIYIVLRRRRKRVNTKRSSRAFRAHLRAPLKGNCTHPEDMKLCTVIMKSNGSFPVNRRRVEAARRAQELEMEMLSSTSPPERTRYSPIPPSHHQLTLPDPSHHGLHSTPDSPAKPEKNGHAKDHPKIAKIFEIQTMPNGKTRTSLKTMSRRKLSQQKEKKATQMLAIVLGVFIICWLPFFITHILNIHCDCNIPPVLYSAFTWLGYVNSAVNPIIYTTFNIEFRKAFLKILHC
# Experiment notes: Radioligand binding assay, dopaminergic D2 receptors
# Run conditions: read-out: Inhibition constants Ki for D2 receptors, D2
Measured endpoint: Ki (nM)
Give bare numbers, in nM.

Study these solved cases before continuing.
> print(dat)
                                   molecule  test.value
1  O=S(=O)(NCC1CN(CCCc2noc3cc(F)ccc23)C1)c1cc2ccccc2s1 [Compound 127]          22
2  COc1ccc2cc(S(=O)(=O)N[C@H]3CCN(CCCc4noc5cc(F)ccc45)C3)ccc2c1 [Compound 231]         6.4
3  O=S(=O)(N[C@@H]1CCN(CCCc2noc3cc(F)ccc23)C1)c1cc2ccccc2s1 [Compound 196]         0.8
4  O=S(=O)(N[C@@H]1CCN(CCCc2noc3cc(F)ccc23)C1)c1ccc2cc(Cl)ccc2c1 [Compound 200]         0.1

Consider the following items and state reported Ki for each.
1. Cc1c(S(=O)(=O)NCC2CN(CCCc3noc4cc(F)ccc34)C2)sc2ccc(F)cc12 [Compound 130]
2. O=S(=O)(N[C@H]1CCN(CCCc2noc3cc(F)ccc23)C1)c1ccc2cc(Cl)ccc2c1 [Compound 201]
3. O=S(=O)(N[C@@H]1CCN(CCCc2noc3cc(F)ccc23)C1)c1cc2ccc(Cl)cc2s1 [Compound 198]
4. O=S(=O)(N[C@H]1CCN(CCCc2noc3cc(F)ccc23)C1)c1csc2ccccc12 [Compound 225]

1. 10
2. 15
3. 1.8
4. 9.2

###

# System: α1 adrenergic receptors (rat cerebral cortex)
# Experiment notes: Radioligand binding assay, adrenergic α1 receptors
# Run conditions: test compound 1×10^−6 M
Label met for high-side α1 [%] (at or above 70%) and not met for low-side α1 [%] (below it).

> print(dat)
                                   compound  assigned.category
1  O=S(=O)(NC1CCN(CCCc2c[nH]c3ccc(Cl)cc23)C1)c1ccccc1 (centres unmarked) [Compound 81]            not met
2  Cc1c(S(=O)(=O)NCC2CCN(CCCc3noc4cc(F)ccc34)C2)sc2ccc(Cl)cc12 (centres unmarked) [Compound 238]                met
3  Cc1ccc2sc(S(=O)(=O)N[C@@H]3CCN(CCCc4noc5cc(F)ccc45)C3)cc2c1 [Compound 228]                met
4  O=S(=O)(NCC1CCN(CCCc2noc3cc(F)ccc23)CC1)c1ccc2ccccc2c1 [Compound 38]                met
5  O=S(=O)(NC1CCN(CCCc2noc3cc(F)ccc23)CC1)c1ccc2cc(Cl)ccc2c1 [Compound 325]                met
6  O=S(=O)(NCC1CCN(CCCc2noc3cc(F)ccc23)C1)c1ccc(-c2ccccc2)cc1 (centres unmarked) [Compound 241]            not met
7  O=S(=O)(N[C@H]1CCN(CCCc2noc3cc(F)ccc23)C1)c1cc2ccc(Cl)cc2s1 [Compound 199]            not met

Query compound follows.
Given Cc1cccc(S(=O)(=O)NC2CN(CCOc3cccc4[nH]ccc34)C2)c1 [Compound 48] , state whether its α1 [%] is at least 70%.
met

###

# System name: UniProtKB P35462
# Sequence (P35462 whole entry): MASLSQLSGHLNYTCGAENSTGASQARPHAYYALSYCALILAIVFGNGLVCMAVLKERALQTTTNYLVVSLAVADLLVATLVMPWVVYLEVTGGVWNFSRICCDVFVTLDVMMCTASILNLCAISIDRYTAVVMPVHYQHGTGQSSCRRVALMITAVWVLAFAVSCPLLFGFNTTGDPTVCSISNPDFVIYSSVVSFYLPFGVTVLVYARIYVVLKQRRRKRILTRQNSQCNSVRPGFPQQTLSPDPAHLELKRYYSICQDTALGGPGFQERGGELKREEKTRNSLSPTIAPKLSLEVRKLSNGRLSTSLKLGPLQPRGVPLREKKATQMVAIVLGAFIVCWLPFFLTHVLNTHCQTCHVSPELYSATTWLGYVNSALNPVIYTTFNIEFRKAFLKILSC
# Experiment notes: Cellular functional assay, D3 dopaminergic receptors
# Assay type: cell-based
# Run conditions: agonism, D3 (h), CHO cells, percent of control specific agonist response (0.3 μM dopamine for control)
D3 ag [%] strictly under 10% means criterion met; at 10% or over means criterion not met.

> print(dat)
                                   compound  assigned.category
1  O=S(=O)(N[C@@H]1CCN(CCCc2noc3cc(F)ccc23)C1)c1cc2ccccc2s1 [Compound 196]      criterion met
2  Cc1cc(S(=O)(=O)NC2CCN(CCCc3noc4cc(F)ccc34)C2)c(C)s1 (centres unmarked) [Compound 221]      criterion met

Below 10% on D3 ag [%]? Entry O=S(=O)(NCC1CN(CCOc2cccc3ccccc23)C1)c1ccc2ccccc2c1 [Compound 122]
criterion not met

Below 10% on D3 ag [%]? Entry O=S(=O)(NCC1CCN(CCOc2cccc3ccccc23)C1)c1ccc2ccccc2c1 (centres unmarked) [Compound 124]
criterion not met

Below 10% on D3 ag [%]? Entry Cc1c(S(=O)(=O)N[C@H]2CCN(CCCc3noc4cc(F)ccc34)C2)sc2ccc(Cl)cc12 [Compound 205]
criterion met

Below 10% on D3 ag [%]? Entry O=S(=O)(NC1CN(CCOc2cccc3c2OCCO3)C1)c1cccc2ccccc12 [Compound 94]
criterion not met

Below 10% on D3 ag [%]? Entry O=S(=O)(NC1CN(CCOc2cccc3[nH]ccc23)C1)c1cccc2ccccc12 [Compound 49]
criterion not met

Below 10% on D3 ag [%]? Entry Cc1c(S(=O)(=O)NCC2CN(CCCc3noc4cc(F)ccc34)C2)sc2ccc(Cl)cc12 [Compound 131]
criterion met

###

# System name: 5-HT2A receptor (Homo sapiens)
# Construct: purchased PerkinElmer
# Sequence (P28223 whole entry): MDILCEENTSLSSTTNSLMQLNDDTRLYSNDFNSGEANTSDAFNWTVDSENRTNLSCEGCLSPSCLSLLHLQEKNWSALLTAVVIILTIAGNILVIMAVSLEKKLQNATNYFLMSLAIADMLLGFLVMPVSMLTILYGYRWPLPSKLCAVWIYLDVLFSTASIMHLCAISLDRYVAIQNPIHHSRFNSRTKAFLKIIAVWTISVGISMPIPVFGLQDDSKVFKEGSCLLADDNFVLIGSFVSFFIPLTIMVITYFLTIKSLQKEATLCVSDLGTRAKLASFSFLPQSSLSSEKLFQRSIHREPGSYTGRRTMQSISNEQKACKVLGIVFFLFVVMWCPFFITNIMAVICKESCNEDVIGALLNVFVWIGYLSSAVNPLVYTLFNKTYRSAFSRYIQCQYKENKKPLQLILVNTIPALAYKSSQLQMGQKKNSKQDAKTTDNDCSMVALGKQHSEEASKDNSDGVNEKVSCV
# Experiment notes: Radioligand binding assay, serotoninergic 5-HT2A receptors
# Run conditions: binding assay result in %, Table 5a
# Text: The specific ligand binding to the receptors is defined as the difference between the total binding and the non-specific binding determined in the presence of the excess of unlabelled ligand. The results are expressed as a percent of control specific binding ((measured specific binding/control specific binding)×100) and as a percent inhibition of control specific binding (100−((measured specific binding/control specific binding)×100)) obtained in the presence of the test compounds. […]
Label criterion met for high-side inhibition at 1 µM (at or above 80%) and criterion not met for low-side inhibition at 1 µM (below it).

The following compounds have reported results that may help.
> print(dat)
                                   compound  assigned.category
1  Cc1c(S(=O)(=O)NCC2CN(CCCc3noc4cc(F)ccc34)C2)sc2ccc(F)cc12 [Compound 130]      criterion met
2  O=S(=O)(N[C@@H]1CCN(CCCc2noc3cc(F)ccc23)C1)c1cc2ccccc2s1 [Compound 196]      criterion met
3  CC(C)(C)c1ccc(S(=O)(=O)NCC2CN(CCCc3noc4cc(F)ccc34)C2)cc1 [Compound 141]      criterion met

Given Cc1cccc(S(=O)(=O)NC2CCN(CCCc3c[nH]c4ccc(Cl)cc34)C2)c1 (stereo not drawn) [Compound 86] , state whether its inhibition at 1 µM is at least 80%.
criterion met

Given Cc1c(S(=O)(=O)NC2CCN(CCCc3noc4cc(F)ccc34)C2)sc2ccc(F)cc12 (stereo not drawn) [Compound 28] , state whether its inhibition at 1 µM is at least 80%.
criterion met

Given O=S(=O)(NCC1CCN(CCOc2cccc3ccccc23)C1)c1cccc2ccccc12 (stereo not drawn) [Compound 273] , state whether its inhibition at 1 µM is at least 80%.
criterion met

Given Cn1ccc2c(S(=O)(=O)NC3CCN(CCCc4noc5cc(F)ccc45)C3)cccc21 (stereo not drawn) [Compound 219] , state whether its inhibition at 1 µM is at least 80%.
criterion met

Given O=S(=O)(NCC1CCN(CCOc2cccc3ccccc23)C1)c1cccc(O)c1 (stereo not drawn) [Compound 123] , state whether its inhibition at 1 µM is at least 80%.
criterion not met

Given Cc1cc(S(=O)(=O)NC2CCN(CCCc3noc4cc(F)ccc34)C2)c(C)s1 (stereo not drawn) [Compound 221] , state whether its inhibition at 1 µM is at least 80%.
criterion met

meta.source: patent US20140135310A1
